system: soybean; assay: Test B pre/postemergence soybean; type: in vivo, Glycine max; details: Postemergence, Rate 125 g/ha; scale of 0 to 10 where 0 is no effect and 10 is complete control
Quantity Measured: Soybean plant response rating
Numbers only.

Illustrative cases are given below, each with its answer.
Compound	Soybean plant response rating
CC(C)N(C(=O)n1oc(=O)n([C@@H](C)c2ccccc2)c1=O)c1ccccc1	1
CCN(CC)C(=O)n1oc(=O)n(Cc2ccccc2)c1=O	0
CC(C)N(C(=O)n1oc(=O)n(CCF)c1=O)c1ccc(F)cc1F	2
C#CC(C=C(C)C)n1c(=O)on(C(=O)N(c2ccccc2)C(C)C)c1=O (stereo not shown)	0
CC(C)N(C(=O)n1oc(=O)n(CCN(C)C(=O)c2ccccc2)c1=O)c1ccc(F)cc1	2
C=CCn1c(=O)on(C(=O)N(c2ccc(F)cc2)C2CC2)c1=O	2

Now consider the entry below.
response.value for `CC(C)N(C(=O)n1oc(=O)n(N(C)C)c1=O)c1ccc(F)cc1` (field: Soybean plant response rating) = 3

----------
Provide the reported Sugarbeets plant response rating (0 to 10 scale) of each item.
test system: sugar beet; test: Test B pre/postemergence sugar beet; assay type: in vivo, Beta vulgaris; conditions: Preemergence, Rate 125 g/ha; 0 is no effect, 10 is complete control
Answers are plain numbers.

Some solved cases for reference:
Cpd Smiles	Measured
CC(C)N(C(=O)n1oc(=O)n(C)c1=O)c1ccc(F)cc1	10
CC(C)N(C(=O)n1oc(=O)n(Cc2ccco2)c1=O)c1ccc(Cl)cc1	0
COc1ccccc1Cn1c(=O)on(C(=O)N(c2ccccc2)C(C)C)c1=O	0

Next molecule, please.
GET /value?item= `C=CCn1c(=O)on(C(=O)N(c2ccc(F)cc2)C2CC2)c1=O` &field=Sugarbeets plant response rating (0 to 10 scale) returns 0

----------
tested on: crabgrass; experiment: Test B pre/postemergence crabgrass; assay type: in vivo, Digitaria sanguinalis; conditions: Postemergence, Rate 500 g/ha; scale of 0 to 10 where 0 is no effect and 10 is complete control
Quantity Measured: Plant response rating, Crabgrass
Numbers only.

Compound	Plant response rating, Crabgrass
CC(C)N(C(=O)n1oc(=O)n(CCC(F)=C(F)F)c1=O)c1ccccc1	9

Give Plant response rating, Crabgrass for each of the items listed below.
1. COCCn1c(=O)on(C(=O)N(c2ccccc2)C(C)C)c1=O
2. CCC(C)n1c(=O)on(C(=O)N(c2ccccc2)C(C)C)c1=O (centres unmarked)
3. COC(=O)C(C)n1c(=O)on(C(=O)N(c2ccc(F)cc2)C(C)C)c1=O (centres unmarked)
4. CC(C)N(C(=O)n1oc(=O)n(C(C)C(=O)c2ccccc2)c1=O)c1ccccc1 (centres unmarked)

stdout:
1. 9
2. 10
3. 7
4. 0

----------
test system: giant foxtail; assay: Test B pre/postemergence giant foxtail; type: in vivo, Setaria faberii; conditions: Preemergence, Rate 500 g/ha; scale of 0 to 10 where 0 is no effect and 10 is complete control
Quantity Measured: Plant response rating, Giant foxtail
Answers are plain numbers.

Compound	Measured
Cc1ccccc1-n1c(=O)on(C(=O)N(c2ccc3c(c2)CCC3)C(C)C)c1=O	8
CC(C)N(C(=O)n1oc(=O)n(C[Si](C)(C)C)c1=O)c1ccc(F)cc1	10
CC(C)N(C(=O)n1oc(=O)n(CC(=O)C(C)(C)C)c1=O)c1ccc(F)cc1	9
COCCn1c(=O)on(C(=O)N(c2ccccc2)C(C)C)c1=O	10
CCOC(=O)C(C)N(C(=O)n1oc(=O)n(CC)c1=O)c1ccc(F)cc1 (centres unmarked)	0
CC(C)N(C(=O)n1oc(=O)n(CCF)c1=O)c1ccc(F)cc1F	10
C=C(Cn1c(=O)on(C(=O)N(c2ccccc2)C(C)C)c1=O)c1ccc(F)cc1	9
CC(C)N(C(=O)n1oc(=O)n(-c2cccnc2)c1=O)c1ccccc1	0
CC(C)N(C(=O)n1oc(=O)n(CC(Cl)Cl)c1=O)c1ccc(F)cc1F	10
CC(C)N(C(=O)n1oc(=O)n(CC(C)(C)C)c1=O)c1ccc(F)cc1	10

Below is a list of compounds. For each, state its recorded Plant response rating, Giant foxtail.
1. COC(C)n1c(=O)on(C(=O)N(c2ccc(Cl)cc2)C(C)C)c1=O (centres unmarked)
2. CC(C)N(C(=O)n1oc(=O)n([C@H](C)c2ccccc2)c1=O)c1ccc(F)cc1F
3. Cc1cccc(C)c1-n1c(=O)on(C(=O)N(C(C)C)C2C=CCCC2)c1=O (centres unmarked)
4. Cc1ccccc1N(C(=O)n1oc(=O)n(-c2ccccc2C)c1=O)C(C)C

stdout:
1: 0; 2: 10; 3: 9; 4: 10
